The values you see were collected from the supplement of paper PMC9170038.

apparent KD of MS2 coat protein for assorted sequences
Tested on: MS2 coat protein
assay: apparent KD of MS2 coat protein; higher = weaker reporter binding
measurementContext: Eterna round: R107; input ligand: arginine 13.2 mM
Return type: number; implicit unit nM.

| biopolymerSequence | apparent KD of MS2 coat protein / nM |
| --- | --- |
| UCUACAUGAGGAUCACCCAUGUGCCAUGAUACCAGACAUGAAAAUGUCCCUUGGCAGCGUGGGUAGCGCAUCCGAAAGGAUGCGC [#08 SameState-TheophyllineA] | 1370 |

Query :: Endpoint output: apparent KD of MS2 coat protein of GCGAUGGAGCGAAGGAGCGGCUAAAUGUAUCACAUGAGGAUCACCCAUGUUCCAGGAUGUGGCCAGGUAGGUCGCGCUCCAUCGC [SSAB NP+V+V2 #16] . Value?
Result :: 233

Query :: Tell me the measured apparent KD of MS2 coat protein of AGAUGCCACUGUGGAUAGCACGAUGCCGAUACCAGCUAGGAAACUAGCCCUUGGCAGCGGUACAUGAGGAUCACCCAUGUAUCCU [EThA NP+V+V2 #9] , please.
Result :: 12.2

Query :: Which apparent KD of MS2 coat protein reading was recorded for the sequence GAAGAGAGGAUACCGUUUGUAUACAACGAUACCAGUGGUAUGUAUCACCCUUGGCAGCGUGAGACAUGAGGAUCACCCAUGUGGC [theeternabot_exclusion_MS2_Theo_A_46] ?
Result :: 14.3

###

Test system: K4 kissing-loop RNA reporter
assay: apparent KD of K4 kissing-loop reporter; higher = weaker reporter binding
measurementContext: Eterna round: R107; input ligand: none
Label met when apparent KD of K4 kissing-loop reporter is at or above 100 nM; anything below gets not met.

| biopolymerSequence | answerLabel |
| --- | --- |
| UUUGUAUCGGGAAGGAGCGUGAAUGAUAAUGAAUAUAGUGAUGUUAUAUAUAAGAACGAAUCACAGGUAGGUCGCCCGGAUGACU [SSArgB.O] | met |
| CGAUACGGAAAUACGUGUCUCUAUUCAGAAGGAGCGUGGUAGUACACAGGUAGGUCGCUGAAAUUUAAACUAGUGAUGUUAGACU [JR_SSArginiA_Sub004] | met |
| AGGCACGAGCAAGGAUAUCGAGUGGAGUGAUGUUCUGCCGACCCAGGACCGAAAGGUCCUGGGUCGCGAGAAGGUGCUCGUGCCU [#2 Same State - FMN A Attempt #8 (HarryS)] | met |

Query :: Does apparent KD of K4 kissing-loop reporter meet or surpass 100 nM for AAUUGAGUGACGGCCGCCACUAGAGUGAUUUUUUUGUUUGAGUGAUGUUUUGAUGUUUGAUGUUGUAGGACCGGGUUGAGUGAUG [vvrvmullin] ?
Result :: met

Query :: Answer whether apparent KD of K4 kissing-loop reporter of ACGGGCGGCUGAAGGAGCGGGCGGGCCCGAGUGAUGUUCGGGUGGGCCGUGAGGUCCGGAGCCCAGGUAGGUCGCGGUUCCGCCU [#2 Same State - Arginine B Attempt #14 (HarryS)] is greater than or equal to 100 nM.
Result :: met

Query :: Would you say AGUGAUGUGGGAAGGAGCGCUACAAGACUUCAGUGAUGUUGAAGUGAUGAUUUAGUGUUGUAGCAGGUAGGUCGCCUAGAUGUUA [KL-XARG-B9] shows apparent KD of K4 kissing-loop reporter at minimum 100 nM?
Result :: not met

Query :: Does apparent KD of K4 kissing-loop reporter meet or surpass 100 nM for GAGUGGCAGACGGCCGCCACUCUUAGCAGCCAGCGGAGUGAUGUUCCGCCCGAGUGAUGUUCGGAGAGGACCGGGUUUGUUGUAA [Exclusion Tryptophan B GF 29] ?
Result :: met

Query :: # check: apparent KD of K4 kissing-loop reporter of GUAUCAGUGAUGUUGGUAGGCGAGCGGGAUACCAGCCAAGACUCAGGCCCUUGGCAGCCCACAUAUCCCACGUAGAUAGUAGCUC [Same State - Theophylline A (Freestyle 15)] is greater than or equal to 100 nM
Result :: met

Query :: # check: apparent KD of K4 kissing-loop reporter of GCAGUGAUGUUGCUGAUGUGCAGUGGUAGUCGAGGACCGGUACGGCCGCCACUCGGUGAGAAUUUGCUAAUACAUCGAUAAGUGA [XVII] is greater than or equal to 100 nM
Result :: met

Query :: Hi team, for UACAUAUAGUUAUUUCUACAUUUAUUUAGUCAGGAUAUCGAUUAGACGAGAAGGGACAAUAUCAAGUGAUGUUUGAUAAUUCAAA [JR_ExcFMNA_Sub011] , is the recorded apparent KD of K4 kissing-loop reporter at or above 100 nM?
Result :: not met

Query :: Answer whether apparent KD of K4 kissing-loop reporter of UUAGCUCUAUAGAGCAAGAGGUAUACUGAUACCAGAGGCUAUAGCCUCCCUUGGCAGCGGAUCGAGUGAUGUUCGUAACCUCAUU [AK4.5 SS Theophylline A] is greater than or equal to 100 nM.
Result :: met

Query :: Item GGCAUAUGAAAUCGCCUAGAGAGAAAGGAUACCAGCACCCGGCGGUGCCCUUGGCAGCCUAGCCCAGUGAUGUUGGGUCCUCUAA [Rasoonanxe] with apparent KD of K4 kissing-loop reporter of 100 nM or above?
Result :: met

###

Tested on: K4 kissing-loop RNA reporter
assay: apparent KD of K4 kissing-loop reporter; higher = weaker reporter binding
measurementContext: Eterna round: R107; input ligand: FMN 200 uM
Binary classification by apparent KD of K4 kissing-loop reporter, with 200 nM as an inclusive lower bound for True; all other cases are False.

Query :: Determine whether measured apparent KD of K4 kissing-loop reporter meets or exceeds 200 nM for AUCUAGAUGCGAAGGAGCGCCUCAACGCGCUAUCUAUGGAGUGAUGUUCCAACGUAUGAGAGGCAGGUAGGUCGCGCAUCUAGAA [Arg B Ex t1]
Result :: False

###

System: K4 kissing-loop RNA reporter;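 note: bound reporter read as fluorescence of individual clusters on recovered sequencing chips by microscopy, with normalized cluster intensities fitted with a binding model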
assay: apparent KD of K4 kissing-loop reporter; higher = weaker reporter binding
measurementContext: Eterna round: R107; input ligand: none
measurementKind: apparent KD of K4 kissing-loop reporter

| biopolymerSequence | readoutValue |
| --- | --- |
| AUUAACCUUUUAGCUAUAUUUUUAUGUGAUACCAGACAUGGCAUAGUCCCUUGGCAGCACAUUAUAUUUACGAGUGAUGUUCGAA [JR_SSTheophyA_Sub026] | 261 nM |
| AAUAUCUAGUAUAUAUUUUAUAAAACAGAUACCAGUGAUUAUAUACACCCUUGGCAGCUGGACGAGUGAUGUUCGUAUAUAUUAA [JR_SSTheophyA_Sub008] | 147 nM |

# context switch: different sequence, same apparent KD of K4 kissing-loop reporter
Query :: For K4 kissing-loop RNA reporter, provide apparent KD of K4 kissing-loop reporter of ACUGGAAUUGUACUCCAGUGAUGUUGGAGGCAGGAUAUCCAGUAAAGGAGAAGGGCCAUCGCGCUAUUUGGCCGCAGGCGGCCAG [Acela] please.
Result :: 128 nM

###

Test system: MS2 coat protein
assay: apparent KD of MS2 coat protein; designed switch direction (-1 OFF switch, 1 ON switch): -1; higher = weaker reporter binding
measurementContext: Eterna round: R95; input ligand: none
Lab note: anything with apparent KD of MS2 coat protein at or over 60 nM counts as met; the rest go in not met.

Answered examples (9):
| biopolymerSequence | answerLabel |
| --- | --- |
| UUGAAGUAAGGAUAUACAUGAGGAUCACCCAUGUGGAGGAAGGUGAUGGGAGUAGGUAGUAGAAGGUACGAGGA [JR_Exclu3_Sub063] (puzzle: Exclusion 3) | met |
| CUCCUCAUGGCGCCUAAACACAUGAGGAUCACCCAUGUACAGGCUUUUUGCCGUCUUAUAAUAAAACCGAGGAUACG [Raaen] (puzzle: Sensor v3, turn-off variant 1) | met |
| CAGUACUGCAGGCUUAGGGACAUGAGGAUCACCCAUGUUCGUCUUAUUGAUCUAGGUACGCUGACGUACCUAGAUCU [JL-sv1-2.15 Brourd mod] (puzzle: Sensor v3, turn-off variant 1) | not met |
| CAGUACUGAGGAUAUACAUGAGGAUCACCCAUGUGUUCCAGCUAGGAAACUAGCAGAAGUAGAAGGCAGUACUG [salish99_ex3_r3_067] (puzzle: Exclusion 3) | not met |
| UAAUAUAGUGUGAGGAUAUGCUGGUCGAUAGAUCAGCAGAAGGCACAUGAGGAUCACCCAUGUAAUAUAUUAAA [Mat - Exclusion 4 - JL Mod - D36] (puzzle: Brourd's mod of Exclusion 4) | not met |
| UUUAAUUUUUUUUUUUUACAAGCUUUUUGCUCGUCUUAUACAUGAGGAUCACCCAUGUGGGUGGAGAGUAAAUUAUC [JMF 60] (puzzle: Sensor v3, turn-off variant 2) | not met |
| GGUUGGCGAGGAUAUACAUGAGGAUCACCCAUGUGAGAAAUAAAAGUGAGGAAGAAAAGUAGAAGGCGCUGACG [Mat - Exclusion 3 - Mod of Salish D3] (puzzle: Exclusion 3) | met |
| ACAAGAAUUUUGCUCGUAAAGUAGAAACGCGAGAGCGAGACAUGAGGAUCACCCAUGUAAAGGCAGUAGGUGGAGAU [JR_SV3TOV2_Sub027] (puzzle: Sensor v3, turn-off variant 2) | not met |
| AGAAAUGCCCAUGGCCACAAGCUUUUUGCUUGCCUUACCACAUGAGGAUCACCCAUGUGACAUGGGCUCCUUAUAAU [Teoredale] (puzzle: Sensor v3, turn-off variant 2) | not met |

Would you kindly look at the next entry?
Query :: Textbook exercise: given the entry CAAAACCUAGGAUAUACAUGAGGAUCACCCAUGUCGGGCCUACGCUAAACGCGCCUCAGUAGAAGGAGGGAAAC [Usasoon] (puzzle: Exclusion 3) , state whether its apparent KD of MS2 coat protein is greater than or equal to 60 nM.
Result :: met
